Reference for the values: ChEMBL document CHEMBL3877337

- target system: Endoplasmic reticulum aminopeptidase 2 (Homo sapiens, UniProt Q6P179)
- Sequence (Q6P179 whole entry): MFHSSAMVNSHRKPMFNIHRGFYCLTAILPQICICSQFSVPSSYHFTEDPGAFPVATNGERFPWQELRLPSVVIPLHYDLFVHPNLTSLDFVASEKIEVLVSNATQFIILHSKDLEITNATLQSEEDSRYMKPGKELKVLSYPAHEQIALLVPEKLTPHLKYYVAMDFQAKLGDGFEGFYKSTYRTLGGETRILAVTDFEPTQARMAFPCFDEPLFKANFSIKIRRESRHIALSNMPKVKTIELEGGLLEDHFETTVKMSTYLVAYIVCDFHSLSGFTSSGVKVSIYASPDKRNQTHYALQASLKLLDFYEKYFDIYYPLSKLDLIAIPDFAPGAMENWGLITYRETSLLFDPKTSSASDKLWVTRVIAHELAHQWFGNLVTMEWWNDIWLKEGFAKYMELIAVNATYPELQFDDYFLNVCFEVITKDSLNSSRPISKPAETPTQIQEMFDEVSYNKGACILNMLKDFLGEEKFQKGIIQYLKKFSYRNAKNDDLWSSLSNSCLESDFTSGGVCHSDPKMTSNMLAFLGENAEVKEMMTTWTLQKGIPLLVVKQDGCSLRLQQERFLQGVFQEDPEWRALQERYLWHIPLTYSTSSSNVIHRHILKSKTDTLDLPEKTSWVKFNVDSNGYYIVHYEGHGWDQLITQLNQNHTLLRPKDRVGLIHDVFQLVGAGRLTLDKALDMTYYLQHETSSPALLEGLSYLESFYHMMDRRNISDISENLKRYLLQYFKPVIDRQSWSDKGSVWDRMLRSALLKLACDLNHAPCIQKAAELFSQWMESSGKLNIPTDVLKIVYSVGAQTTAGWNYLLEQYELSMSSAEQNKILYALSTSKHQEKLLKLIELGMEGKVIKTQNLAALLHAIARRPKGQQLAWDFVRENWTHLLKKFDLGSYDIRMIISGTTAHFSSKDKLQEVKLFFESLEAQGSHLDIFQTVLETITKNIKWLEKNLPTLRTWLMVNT
- protocol notes: Inhibition of recombinant ERAP2 (unknown origin) expressed in baculovirus infected insect cells using L-arginine-7-amido-4-methylcoumarine as substrate by spectrofluorimetric assay
recorded metric: IC50

>>> recorded_measurement("O=C(NO)C(Cc1ccc(F)cc1)C(=O)NCc1ccccc1 (stereo unspecified)")
"> 100 µM"
